// provenance: patent US20260199483A1

Biological target: purified recombinant Yck2 (Candida albicans, UniProt A0A1D8PKB4)
Construct: Yck2 residues 37-345 were PCR amplified from C. albicans genomic DNA; His6 (N); TEV protease site (N)
Sequence (A0A1D8PKB4 entry or part of it): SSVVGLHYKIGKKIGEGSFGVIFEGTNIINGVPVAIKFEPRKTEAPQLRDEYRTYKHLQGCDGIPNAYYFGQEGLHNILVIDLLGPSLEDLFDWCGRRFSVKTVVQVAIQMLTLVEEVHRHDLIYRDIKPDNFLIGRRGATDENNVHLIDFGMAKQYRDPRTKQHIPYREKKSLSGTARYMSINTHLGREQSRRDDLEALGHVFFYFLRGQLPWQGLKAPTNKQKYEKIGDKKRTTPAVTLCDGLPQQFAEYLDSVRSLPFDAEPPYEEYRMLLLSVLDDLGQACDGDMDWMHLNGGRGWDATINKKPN
Experiment: HotSpot kinase assay
Measurement Type: IC50 (nM)
One number for each entry, in nM.

Some entries whose results are on file:
[
  {
    "Compound": "Cn1cc(-c2ccncc2CNC2CCN(CC(O)(Cn3cncn3)c3ccc(F)cc3F)CC2)c(-c2ccc(F)cc2)n1 (centres unmarked)",
    "Unit Abbreviation": "nM",
    "IC50": 178
  },
  {
    "Compound": "Nc1nccc(-c2c(-c3ccc(F)cc3)ncn2C2CCN(CC(O)(Cn3ccnn3)c3ccc(F)cc3F)CC2)n1 (centres unmarked)",
    "Unit Abbreviation": "nM",
    "IC50": 6.8
  },
  {
    "Compound": "Cn1cc(-c2ccncc2COCCC(O)(Cn2cncn2)c2ccc(F)cc2F)c(-c2ccc(F)cc2)n1 (centres unmarked)",
    "Unit Abbreviation": "nM",
    "IC50": 65.9
  },
  {
    "Compound": "Cn1cc(-c2ccncc2COC(=O)C2CCN(CC(O)(Cn3cncn3)c3ccc(F)cc3F)CC2)c(-c2ccc(F)cc2)n1 (centres unmarked)",
    "Unit Abbreviation": "nM",
    "IC50": 185
  }
]

Give IC50 for each listed item.
1. Nc1nccc(-c2c(-c3ccc(F)cc3)ncn2C2CCN(CCCC(O)(Cn3cncn3)c3ccc(F)cc3F)CC2)n1 (centres unmarked)
2. Cn1cc(-c2ccncc2COCC[C@@](O)(Cn2cncn2)c2ccc(F)cc2F)c(-c2ccc(F)cc2)n1

a:
3.19
169

Give IC50 for each listed item.
1. Cn1cc(-c2ccnc3c2C(=O)N(CC2CCN(CC(O)(Cn4cncn4)c4ccc(F)cc4F)CC2)C3)c(-c2ccc(F)cc2)n1 (centres unmarked)
2. Cn1cc(-c2ccncc2COCC[C@](O)(Cn2cncn2)c2ccc(F)cc2F)c(-c2ccc(F)cc2)n1
3. O=C(NC1CCN(C[C@@](O)(Cn2cncn2)c2ccc(F)cc2F)CC1)c1ccc2c(-c3ccncc3)c(-c3ccc(F)cc3)nn2c1
4. O=C(NC[C@](O)(Cn1cncn1)c1ccc(F)cc1F)c1ccc2c(-c3ccncc3)c(-c3ccc(F)cc3)nn2c1
5. OC(CNCCOc1cccc2c(-c3ccncc3)c(-c3ccc(F)cc3)nn12)(Cn1cncn1)c1ccc(F)cc1F (centres unmarked)
6. O=C(NCC(O)(Cn1cncn1)c1ccc(F)cc1F)c1cccc2c(-c3ccncc3)c(-c3ccc(F)cc3)nn12 (centres unmarked)
7. Nc1nccc(-c2c(-c3ccc(F)cc3)ncn2C2CCN(C(=O)CCNCC(O)(Cn3cncn3)c3ccc(F)cc3F)CC2)n1 (centres unmarked)
8. O=C(NC1CCN(CC(O)(Cn2cncn2)c2ccc(F)cc2F)CC1)c1ccc2c(-c3ccncc3)c(-c3ccc(F)cc3)nn2c1 (centres unmarked)

a:
2.93
107
49.5
7.91
48.7
765
0.4
32.9

----------
Exercise: for every item that follows, state its recorded IC50 at 48 h.
Assay: Mammalian cell toxicity (Cell Titer-Glo)
Format: cell-based
Conditions: human; HepG2 cells, 48 h incubation, Cell Titer-Glo luminescence
Answers are plain numbers, in µM.

Some entries whose results are on file:
[
  {
    "Compound": "O=C(NC1CCN(C[C@@](O)(Cn2cncn2)c2ccc(F)cc2F)CC1)c1ccc2c(-c3ccncc3)c(-c3ccc(F)cc3)nn2c1 [Compound I-103]",
    "IC50 at 48 h, µM": 6.38
  },
  {
    "Compound": "OC(Cn1cnnn1)(c1ccc(F)cc1F)C(F)(F)c1ccc(-c2ccc(CNCc3ccc4c(-c5ccncc5)c(-c5ccc(F)cc5)nn4c3)cc2)cn1 (stereo not shown) [Compound I-269]",
    "IC50 at 48 h, µM": 3.67
  },
  {
    "Compound": "Nc1nccc(-c2c(-c3ccc(F)cc3)ncn2C2CCN(CCCn3c4c(c5cccc(Cl)c53)CCNC4)CC2)n1 [Compound I-231]",
    "IC50 at 48 h, µM": 1.84
  },
  {
    "Compound": "O=C(NC1CCN(CC(O)(Cn2cncn2)c2ccc(F)cc2F)CC1)c1cccc2c(-c3ccncc3)c(-c3ccc(F)cc3)nn12 (stereo not shown) [Compound I-155]",
    "IC50 at 48 h, µM": 10.1
  },
  {
    "Compound": "O=C(NC1CCN(C[C@](O)(Cn2cncn2)c2ccc(F)cc2F)CC1)c1ccc2c(-c3ccncc3)c(-c3ccc(F)cc3)nn2c1 [Compound I-102]",
    "IC50 at 48 h, µM": 2.24
  }
]

Give IC50 at 48 h for each listed item.
1. Fc1ccc(-c2nn3cc(CNC[C@H]4CO[C@@](Cn5cncn5)(c5ccc(F)cc5F)C4)ccc3c2-c2ccncc2)cc1 (stereo in doubt) [Compound I-257]
2. O=C(CC(O)(Cn1cncn1)c1ccc(F)cc1F)NCc1ccc2c(-c3ccncc3)c(-c3ccc(F)cc3)nn2c1 (stereo not shown) [Compound I-255]
3. Fc1ccc(-c2nn3cc(CNC[C@H]4CO[C@](Cn5cncn5)(c5ccc(F)cc5F)C4)ccc3c2-c2ccncc2)cc1 (stereo in doubt) [Compound I-256]
4. Cn1cc(-c2ccncc2COC(=O)NC2CCN(CC(O)(Cn3cncn3)c3ccc(F)cc3F)CC2)c(-c2ccc(F)cc2)n1 (stereo not shown) [Compound I-244]

a:
[5.57, 22.5, 11.8, 18.4]

----------
Biological target: purified recombinant Yck2 (Candida albicans, UniProt A0A1D8PKB4)
Construct: Yck2 residues 37-345 were PCR amplified from C. albicans genomic DNA; His6 (N); TEV protease site (N)
Experiment: HotSpot kinase assay
Hi! Could you tag entries with IC50 below 8 nM as fulfilled, and those at or above as not fulfilled? Much appreciated.

Consider the worked cases shown below.
[
  {
    "Molecule": "CN1Cc2nccc(-c3cn(CCC(O)(Cn4cncn4)c4ccc(F)cc4F)nc3-c3ccc(F)cc3)c2C1=O (stereo not shown)",
    "Answer Label": "not fulfilled"
  },
  {
    "Molecule": "Nc1nccc(-c2c(-c3ccc(F)cc3)ncn2C2CCN(CC(=O)NCC(O)(Cn3cncn3)c3ccc(F)cc3F)CC2)n1 (stereo not shown)",
    "Answer Label": "not fulfilled"
  },
  {
    "Molecule": "Nc1nccc(-c2c(-c3ccc(F)cc3)ncn2C2CCN(CC[C@@](O)(Cn3cncn3)c3ccc(F)cc3F)CC2)n1",
    "Answer Label": "not fulfilled"
  },
  {
    "Molecule": "O[C@@](CNCc1ccc2c(-c3ccncc3)c(-c3ccc(F)cc3)nn2c1)(Cn1cncn1)c1ccc(F)cc1F",
    "Answer Label": "fulfilled"
  },
  {
    "Molecule": "Nc1nccc(-c2c(-c3ccc(F)cc3)ncn2C2CCN(CC[C@](O)(Cn3cncn3)c3ccc(F)cc3F)CC2)n1",
    "Answer Label": "not fulfilled"
  }
]

q: Item Nc1nccc(-c2c(-c3ccc(F)cc3)ncn2C2CCN(CCCNCC(O)(Cn3cncn3)c3ccc(F)cc3F)CC2)n1 (stereo not shown) : IC50 beneath 8 nM, strictly?
a: fulfilled

q: Item `O=C(NC1CCN(C[C@](O)(Cn2cncn2)c2ccc(F)cc2F)CC1)c1ccc2c(-c3ccncc3)c(-c3ccc(F)cc3)nn2c1` : IC50 beneath 8 nM, strictly?
a: not fulfilled

----------
Assay: Mammalian cell toxicity (Cell Titer-Glo)
Assay type: cell-based
Settings: human; HepG2 cells, 48 h incubation, Cell Titer-Glo luminescence
Measurement Type: IC50 at 48 h (µM)
Answers are plain numbers, in µM.

Some entries whose results are on file:
[
  {
    "Compound": "OC(Cn1cncn1)(c1ccc(F)cc1F)C(F)(F)c1ccc(C#Cc2ccc(OCCNCc3ccc4c(-c5ccncc5)c(-c5ccc(F)cc5)nn4c3)cc2)cn1 (centres unmarked)",
    "Number": 1.54
  },
  {
    "Compound": "OC(Cn1cncn1)(c1ccc(F)cc1F)C(F)(F)c1ccc(C#Cc2ccc(CNCc3ccc4c(-c5ccncc5)c(-c5ccc(F)cc5)nn4c3)cc2)cn1 (centres unmarked)",
    "Number": 8.03
  },
  {
    "Compound": "C[C@@H](NCc1ccc2c(-c3ccncc3)c(-c3ccc(F)cc3)nn2c1)[C@](O)(Cn1cncn1)c1ccc(F)cc1F",
    "Number": 19.5
  }
]

Switching to the query record.
The recorded IC50 at 48 h for `CC(C)(C)OC(=O)N1CCc2c(n(CCCN3CCC(n4cnc(-c5ccc(F)cc5)c4-c4ccnc(N)n4)CC3)c3ccc(Cl)cc23)C1` is 5.59

----------
Molecular target: purified recombinant Yck2 (Candida albicans)
Construct: Yck2 residues 37-345 were PCR amplified from C. albicans genomic DNA; His6 (N); TEV protease site (N)
Assay: HotSpot kinase assay
Exercise: for every item that follows, state its recorded pIC50.
Numbers only, as −log10 of the molar value.

Some entries whose results are on file:
[
  {
    "Compound": "O=C(NC[C@@](O)(Cn1cncn1)c1ccc(F)cc1F)c1ccc2c(-c3ccncc3)c(-c3ccc(F)cc3)nn2c1",
    "Target": "purified recombinant Yck2 (Candida albicans)",
    "Measurement Type": "pIC50",
    "Number": 8.29
  },
  {
    "Compound": "Cn1cc(-c2ccnc3c2C(=O)N(CCC2CCN(C[C@](O)(Cn4cncn4)c4ccc(F)cc4F)CC2)C3)c(-c2ccc(F)cc2)n1 (single isomer, unassigned)",
    "Target": "purified recombinant Yck2 (Candida albicans)",
    "Measurement Type": "pIC50",
    "Number": 8.33
  },
  {
    "Compound": "Nc1nccc(-c2c(-c3ccc(F)cc3)ncn2C2CCN(CCCn3c4c(c5cccc(Cl)c53)CCNC4)CC2)n1",
    "Target": "purified recombinant Yck2 (Candida albicans)",
    "Measurement Type": "pIC50",
    "Number": 8.38
  },
  {
    "Compound": "Cn1cc(-c2ccnc3c2C(=O)N(CC(O)(Cn2cncn2)c2ccc(F)cc2F)C3)c(-c2ccc(F)cc2)n1 (stereo not drawn)",
    "Target": "purified recombinant Yck2 (Candida albicans)",
    "Measurement Type": "pIC50",
    "Number": 7.14
  },
  {
    "Compound": "Cn1cc(-c2ccnc3c2C(=O)N(CC2CCN(C[C@](O)(Cn4cncn4)c4ccc(F)cc4F)CC2)C3)c(-c2ccc(F)cc2)n1",
    "Target": "purified recombinant Yck2 (Candida albicans)",
    "Measurement Type": "pIC50",
    "Number": 8.11
  }
]

Switching to the query record.
The recorded pIC50 for OC(CNCc1ccc2c(-c3ccncc3)c(-c3ccc(F)cc3)nn2c1)(Cn1cncn1)c1ccc(F)cc1F (stereo not drawn) is 8.47
